Target: T1, human GIP receptor (human, UniProt P48546 22-466)
T1 sequence (looked up): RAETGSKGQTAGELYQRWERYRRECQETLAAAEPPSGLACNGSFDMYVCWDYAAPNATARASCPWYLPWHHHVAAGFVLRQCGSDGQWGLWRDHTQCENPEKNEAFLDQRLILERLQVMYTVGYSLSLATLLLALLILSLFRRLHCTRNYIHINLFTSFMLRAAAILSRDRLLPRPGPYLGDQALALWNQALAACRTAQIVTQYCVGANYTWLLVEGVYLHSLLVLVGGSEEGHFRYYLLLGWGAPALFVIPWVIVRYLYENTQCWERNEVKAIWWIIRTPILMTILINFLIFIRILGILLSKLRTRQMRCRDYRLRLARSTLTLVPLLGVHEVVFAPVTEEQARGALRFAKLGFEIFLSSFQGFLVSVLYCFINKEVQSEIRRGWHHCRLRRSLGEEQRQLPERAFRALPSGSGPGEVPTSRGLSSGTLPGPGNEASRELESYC
Test: cell-based or functional assay
*1 amine or outer side, *2 acyl side, *3 side chain or, on linkers, in order; H or OH if unused. Where no end group is shown, it is not given here. Side-chain parts run from the residue outwards. [ ]: non-standard residue; d: D form. The star is where a group is joined. C20 diacid = O=C(O)CCCCCCCCCCCCCCCCCCC(=O)*; C18 diacid = O=C(O)CCCCCCCCCCCCCCCCC(=O)*; γGlu = O=C(O)[C@H](CCC(=O)[*:2])N[*:1]; εLys = N[C@@H](CCCCN[*:1])C(=O)[*:2]; AEEA = NCCOCCOCC(=O)O; Aib = CC(C)(N)C(=O)O

{"Binder": "YXEGTFTSDYSIXLEKQAYXAFVRHLINKXTRQRY (Aib at 2, 13, 20, 30; Lys29 epsilon-amino acylated with C18DA-gGlu-gGlu-gGlu-gGlu-gGlu-gGlu-eLys; C-terminal amide) [Compound 84]", "EC50, CreLuc reporter, 100% hP / nM": 48.4}
{"Binder": "YXEGTFTSDLSIXLEKQAQXAFVRHLINKXTRQRY (Aib at 2, 13, 20, 30; Lys29 epsilon-amino acylated with C20DA-gGlu-gGlu-gGlu-gGlu-gGlu-AHX-AHX; C-terminal amide) [Compound 1]", "EC50, CreLuc reporter, 100% hP / nM": 10.3}
{"Binder": "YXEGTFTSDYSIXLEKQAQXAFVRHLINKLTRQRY (Aib at 2, 13, 20; Lys29 epsilon-amino acylated with C20DA-gGlu-gGlu-gGlu-gGlu-gGlu-gGlu-eLys; C-terminal amide) [Compound 27]", "EC50, CreLuc reporter, 100% hP / nM": 16.3}
{"Binder": "YXEGTFTSDYSIXLEKQAQXAFLRHLINKXTRQRY (Aib at 2, 13, 20, 30; Lys29 epsilon-amino acylated with C18DA-gGlu-gGlu-gGlu-gGlu-gGlu-gGlu-eLys; C-terminal amide) [Compound 37]", "EC50, CreLuc reporter, 100% hP / nM": 15.5}
{"Binder": "YXEGTFTSDYSIXLEKQAQXAFVRQLINKXTRQRY (Aib at 2, 13, 20, 30; Lys29 epsilon-amino acylated with C18DA-gGlu-gGlu-gGlu-gGlu-gGlu; C-terminal amide) [Compound 50]", "EC50, CreLuc reporter, 100% hP / nM": 23.3}
{"Binder": "Y[Aib]EGTFTSDYSI[Aib]LEKQAQ[Aib]AFVRHLINK([γDab-γGlu-γGlu-γGlu-γGlu-γGlu-γGlu-C20 diacid])[Aib]TRQRY-NH2 [Compound 46]", "EC50, CreLuc reporter, 100% hP / nM": 7.2}
{"Binder": "Y[Aib]EGTFTSDYSI[Aib]LEKQAE[Aib]AFVRHLINK([εLys-εLys-γGlu-γGlu-γGlu-γGlu-γGlu-γGlu-C20 diacid])[Aib]TRQRY-NH2 [Compound 82]", "EC50, CreLuc reporter, 100% hP / nM": 11.7}
{"Binder": "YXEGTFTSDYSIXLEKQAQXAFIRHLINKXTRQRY (Aib at 2, 20, 30; aMeL at 13; Lys29 epsilon-amino acylated with C18DA-gGlu-gGlu-gGlu-gGlu-gGlu-gGlu-eLys; C-terminal amide) [Compound 76]", "EC50, CreLuc reporter, 100% hP / nM": 0.5}
{"Binder": "Y[Aib]EGTFTSDYSI[Aib]LEKQAQ[Aib]EFVRHLINK([AEEA-AEEA-γGlu-γGlu-γGlu-γGlu-C18 diacid])[Aib]TRQRY-NH2 [Compound 73]", "EC50, CreLuc reporter, 100% hP / nM": 5.9}
{"Binder": "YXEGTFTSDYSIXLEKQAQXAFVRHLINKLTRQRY (Aib at 2, 13, 20; Lys29 epsilon-amino acylated with C18DA-gGlu-gGlu-gGlu-gGlu-gGlu-AHX; C-terminal amide) [Compound 69]", "EC50, CreLuc reporter, 100% hP / nM": 5.5}
{"Binder": "YXEGTFTSDYSIXLEEQAQXAFVRHLINKXTRQRY (Aib at 2, 13, 20, 30; Lys29 epsilon-amino acylated with C18DA-gGlu-gGlu-gGlu-gGlu-gGlu; C-terminal amide) [Compound 75]", "EC50, CreLuc reporter, 100% hP / nM": 13.2}

From: patent US20250382344A1
